Cited source for all entries: ChEMBL document CHEMBL1136706

MEASUREMENT_TARGET: Protein farnesyltransferase (Bos taurus, UniProt P29702+P49355)
TEST: Inhibit of purified bovine Farnesyl protein transferase.
pIC50: −log10 of the molar value.
PROPERTY_LABEL: pIC50

Consider the following illustrative entries.
1) COc1ccc(C(=O)N(Cc2cncn2Cc2ccc(C#N)cc2)c2ccc(N3CCN(C(=O)c4ccc(Cl)s4)CC3)cc2)cc1; 8.70
2) N#Cc1ccc(Cn2cncc2CN(Cc2ccc(F)cc2)c2ccc(N3CCN(C(=O)c4ccc(Cl)s4)CC3)cc2)cc1; 7.15

1. COc1ccccc1C(=O)N(Cc1cncn1Cc1ccc(C#N)cc1)c1ccc(N2CCN(C(=O)c3ccc(Cl)s3)CC2)cc1
2. O=C(c1ccc(Cl)s1)N1CCN(c2ccc(N(Cc3cnc[nH]3)S(=O)(=O)c3ccccc3)cc2)CC1
Consider entries 1 and 2 . Which has the numerically lower pIC50? # respond with the chosen item's label
2

P. N#Cc1ccc(Cn2cncc2CNc2ccc(N3CCN(C(=O)c4ccc(Cl)s4)CC3)cc2)cc1
Q. O=C(NC1CCCCC1)N1CCN(c2ccc(N(Cc3cnc[nH]3)S(=O)(=O)c3ccccc3)cc2)CC1
Consider entries P and Q . Which has the numerically lower pIC50? # respond with the chosen item's label
Q
(Q: 6.00, P: 7.15)

P. N#Cc1ccc(Cn2cncc2CN(Cc2cccc(F)c2)c2ccc(N3CCN(C(=O)c4ccc(Cl)s4)CC3)cc2)cc1
Q. O=S(=O)(c1ccccc1)N(Cc1c[nH]cn1)c1ccc(N2CCN(C(=S)NCCc3ccccc3)CC2)cc1
Consider entries P and Q . Which has the numerically lower pIC50? # respond with the chosen item's label
Q
(Q: 7.00, P: 7.70)

---

MEASUREMENT_TARGET: Protein farnesyltransferase (Bos taurus, UniProt P29702+P49355)
TEST: Inhibit of purified bovine Farnesyl protein transferase.
Format: protein-complex assay
pIC50: −log10 of the molar value.
PROPERTY_LABEL: pIC50

Consider the following illustrative entries.
1) O=S(=O)(c1ccccc1)N(Cc1c[nH]cn1)c1ccc(N2CCN(C(=S)Nc3ccccc3)CC2)cc1; 6.22
2) O=S(=O)(c1ccccc1)N(Cc1c[nH]cn1)c1ccc(N2CCN(C(=S)NCC3CCCCC3)CC2)cc1; 7.52
3) O=C(Nc1ccccc1)N1CCN(c2ccc(N(Cc3cnc[nH]3)S(=O)(=O)c3ccccc3)cc2)CC1; 6.00

P. O=S(=O)(c1ccccc1)N(Cc1c[nH]cn1)c1ccc(N2CCN(C(=S)NCc3ccccc3)CC2)cc1
Q. N#Cc1ccc(Cn2cncc2CN(C(=O)c2cccc(Cl)c2)c2ccc(N3CCN(C(=O)c4ccc(Cl)s4)CC3)cc2)cc1
R. O=S(=O)(c1ccccc1)N(Cc1c[nH]cn1)c1ccc(N2CCN(C(=S)NC3CCCCC3)CC2)cc1
Provide the items ranked by increasing pIC50. List labels; respect the requested ordering.
P, R, Q
(P: 7.22, R: 7.70, Q: 8.70)

a. O=C(NCc1ccccc1)N1CCN(c2ccc(N(Cc3cnc[nH]3)S(=O)(=O)c3ccccc3)cc2)CC1
b. COc1cccc(C(=O)N(Cc2cncn2Cc2ccc(C#N)cc2)c2ccc(N3CCN(C(=O)c4ccc(Cl)s4)CC3)cc2)c1
Consider entries a and b . Which has the numerically lower pIC50? # respond with the chosen item's label
a
(a: 6.22, b: 8.70)
